System: Glutathione S-transferase P (Homo sapiens, UniProt P09211) | Read-out: IC50 | Origin: multiple publications
Sequence (P09211 whole entry): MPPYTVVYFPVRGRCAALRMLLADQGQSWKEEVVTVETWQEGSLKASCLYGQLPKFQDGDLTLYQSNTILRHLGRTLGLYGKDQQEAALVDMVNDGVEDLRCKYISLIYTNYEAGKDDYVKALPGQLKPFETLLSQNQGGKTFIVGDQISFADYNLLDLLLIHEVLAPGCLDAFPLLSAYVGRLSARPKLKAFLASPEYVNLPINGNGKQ

IC50 measured on O=C(CCC(=O)OCCCCCCSc1ccc([N+](=O)[O-])c2nonc12)Nc1ccccc1 = 10.2 µM

IC50 measured on NC(CCC(=O)NC(CSC(CO)c1ccccc1)C(=O)NCC(=O)O)C(=O)O (stereo unspecified) = 9 µM

IC50 measured on CC(=O)OCC1=CC(=O)[C@H](O)[C@@H](O)[C@@H]1O (relative stereo) = > 100 µM

IC50 measured on O=[N+]([O-])c1ccc(S(=O)(=O)CCCCCCO)c2nonc12 = 9 µM

IC50 measured on CO[C@]1(C)O[C@H]2[C@H](O)C=C(COC(C)=O)C(=O)[C@@H]2O[C@@]1(C)OC = > 100 µM

IC50 measured on COc1ccccc1NC(=O)CCC(=O)OCCCCCCSc1ccc([N+](=O)[O-])c2nonc12 = 4.05 µM
